# ASSAY SYSTEM: bEVs from K. pneumoniae
# METHOD: SPR interaction with immobilized bEVs
# MEASUREMENT CONDITIONS: read-out: Dissociation constant KD determined by SPR; K. pneumoniae bEVs on L1 chip; Biacore T200, 25°C, 10 mM HEPES, 150 mM NaCl; steady-state fit; three parallels
Non-standard residues stand in square brackets, D forms with d. Residues, ends and D or L forms follow the SMILES beside them.
# pKd per record follows
pKd here is simply -log10 of the concentration when that concentration is written in mol/L.

| MOLECULE | pKd |
| --- | --- |
| N=C(N)NCCC[C@@H]1NC(=O)[C@H](CCCNC(=N)N)NC(=O)[C@H](Cc2c[nH]c3ccccc23)NC(=O)[C@H](Cc2c[nH]c3ccccc23)NC(=O)[C@H](Cc2c[nH]c3ccccc23)NC(=O)[C@H](CCCNC(=N)N)NC1=O [c-WWWRRR] (cyclo(WWWRRR)) | 4.45 |
| CC(C)C[C@@H]1NC(=O)[C@@H](CCCNC(=N)N)NC(=O)[C@H](CCCCN)NC(=O)[C@H](CC(N)=O)NC(=O)[C@@H](Cc2c[nH]c3ccccc23)NC(=O)[C@H](Cc2c[nH]c3ccccc23)NC1=O [c-LWwNKr, reference compound] (cyclo(LW[dW]NK[dR])) | 2.97 |
| NCCCC[C@@H]1NC(=O)[C@H](CCCCN)NC(=O)[C@H](Cc2c[nH]c3ccccc23)NC(=O)[C@H](Cc2c[nH]c3ccccc23)NC(=O)[C@H](Cc2c[nH]c3ccccc23)NC(=O)[C@H](CCCCN)NC1=O [c-WWWKKK] (cyclo(WWWKKK)) | 4.68 |

Then there is this molecule:
Ask: # get_value(readout='pKd', item= NCCCC[C@@H]1NC(=O)[C@H](Cc2c[nH]c3ccccc23)NC(=O)[C@H](CCCCN)NC(=O)[C@H](Cc2c[nH]c3ccccc23)NC(=O)[C@H](CCCCN)NC(=O)[C@H](Cc2c[nH]c3ccccc23)NC1=O [c-WKWKWK] (cyclo(WKWKWK)) )
Result: 3.16

---

# Tested on: bEVs from E. coli ΔtolA
# MEASUREMENT CONDITIONS: E. coli ΔtolA bEVs; 400 s dissociation phase, Figueira et al. 2017 formalism; 25°C; three parallels
Non-standard residues stand in square brackets, D forms with d. Residues, ends and D or L forms follow the SMILES beside them.
# koff rate constant determined by SPR per record follows
Remember to follow the number with its unit.

Solved cases (3 shown):
| MOLECULE | ASSAY SYSTEM | koff rate constant determined by SPR |
| --- | --- | --- |
| CC(C)C[C@@H]1NC(=O)[C@@H](CCCNC(=N)N)NC(=O)[C@H](CCCCN)NC(=O)[C@H](CC(N)=O)NC(=O)[C@@H](Cc2c[nH]c3ccccc23)NC(=O)[C@H](Cc2c[nH]c3ccccc23)NC1=O [c-LWwNKr, reference compound] (cyclo(LW[dW]NK[dR])) | bEVs from E. coli ΔtolA | 1.42 ± 0.27 s⁻¹ |
| N=C(N)NCCC[C@@H]1NC(=O)[C@H](CCCNC(=N)N)NC(=O)[C@H](Cc2c[nH]c3ccccc23)NC(=O)[C@H](Cc2c[nH]c3ccccc23)NC(=O)[C@H](Cc2c[nH]c3ccccc23)NC(=O)[C@H](CCCNC(=N)N)NC1=O [c-WWWRRR] (cyclo(WWWRRR)) | bEVs from E. coli ΔtolA | 0.18 ± 0.02 s⁻¹ |
| NCCCC[C@@H]1NC(=O)[C@H](Cc2c[nH]c3ccccc23)NC(=O)[C@H](CCCCN)NC(=O)[C@H](Cc2c[nH]c3ccccc23)NC(=O)[C@H](CCCCN)NC(=O)[C@H](Cc2c[nH]c3ccccc23)NC1=O [c-WKWKWK] (cyclo(WKWKWK)) | bEVs from E. coli ΔtolA | 1.42 ± 0.16 s⁻¹ |

Then there is this molecule:
Ask: # get_value(readout='koff rate constant determined by SPR', item= NCCCC[C@@H]1NC(=O)[C@H](CCCCN)NC(=O)[C@H](Cc2c[nH]c3ccccc23)NC(=O)[C@H](Cc2c[nH]c3ccccc23)NC(=O)[C@H](Cc2c[nH]c3ccccc23)NC(=O)[C@H](CCCCN)NC1=O [c-WWWKKK] (cyclo(WWWKKK)) )
Result: 0.62 ± 0.05 s⁻¹
